The origin of these recorded values is patent US11384055B2.

Measured pIC50 by item
Molecular target: Human GO (Homo sapiens)
Construct: purchased Novus Biologicals NBP1-72412
Sequence (Q9UJM8 whole entry): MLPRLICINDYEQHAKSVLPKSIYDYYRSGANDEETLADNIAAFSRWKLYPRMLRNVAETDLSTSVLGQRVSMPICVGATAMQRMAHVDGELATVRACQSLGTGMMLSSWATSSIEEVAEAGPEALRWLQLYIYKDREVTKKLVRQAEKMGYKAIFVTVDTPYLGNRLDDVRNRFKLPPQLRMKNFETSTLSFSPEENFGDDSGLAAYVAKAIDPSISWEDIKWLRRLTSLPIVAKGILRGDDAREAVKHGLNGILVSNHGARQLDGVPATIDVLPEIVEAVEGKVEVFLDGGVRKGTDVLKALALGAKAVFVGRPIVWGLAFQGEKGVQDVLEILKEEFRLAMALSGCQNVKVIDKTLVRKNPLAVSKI
Assay: GO enzymatic assay (coupled fluorescence/HRP assay, glycolate substrate)
Type: biochemical
Conditions: Table 1; read-out: Range (range of IC50 values calculated from the enzymatic assays)
pIC50: −log10 of the molar value.

# lookup: pIC50 of COc1cc(-c2nc(Sc3nn[nH]c3C(=O)O)cs2)ccc1Cl [Compound 23]
> 7.00

Next molecule: O=C(O)c1[nH]nnc1Sc1ccc2c(c1)CCCC2 [Compound 50]
> 7.00

Same thing, different molecule: O=C(OC1CC1)c1[nH]nnc1Sc1nc(-c2ccc(Cl)c(Cl)c2)cs1 [Compound 19]
< 5.00

What do you have for O=C(O)c1[nH]nnc1Nc1ccc(F)c(F)c1 [Compound 80] ?
6.00 to 7.00

Try this molecule too: O=C(O)c1[nH]nnc1-c1cccc(Oc2ccc(Cl)c(Cl)c2)c1 [Compound 131, 2,2,2-trifluoroacetate]
> 7.00

Turning now to a further molecule:
Endpoint output: pIC50 of O=C(O)c1[nH]nnc1Sc1ccc2cc(Cl)ccc2c1 [Compound 56] . Value?
> 7.00
